Cited source for all entries: ChEMBL document CHEMBL1134847

- experimentalProtocol: Time of maximum concentration of the drug when administered orally at dose of 3 mg/kg
- Format: ADME, organism-based
- Design: dose 3 mg/kg, route oral
- assayConditions: rat, in vivo, po
recordedEndpoint: Tmax (h)
Give a bare numeral; the unit h is implied.

The molecule listed as CC(C)C(NC(=O)Cn1c(-c2ccccc2)ncc(N)c1=O)C(=O)c1nnc(C(C)(C)C)o1 (stereo unspecified) has a reported Tmax of 1.1

----------
- experimentalSystem: Neutrophil elastase (Homo sapiens)
- Sequence (P08246 whole entry): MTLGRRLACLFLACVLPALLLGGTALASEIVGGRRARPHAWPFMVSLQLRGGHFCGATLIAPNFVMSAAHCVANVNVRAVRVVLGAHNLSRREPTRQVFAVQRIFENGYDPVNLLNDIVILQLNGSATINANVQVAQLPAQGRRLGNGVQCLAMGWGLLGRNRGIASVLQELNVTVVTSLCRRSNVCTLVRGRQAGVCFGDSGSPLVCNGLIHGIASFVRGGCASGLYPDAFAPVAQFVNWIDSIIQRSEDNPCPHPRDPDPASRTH
- experimentalProtocol: Binding constant derived from inhibition of elastase catalyzed hydrolysis of synthetic substrate
recordedEndpoint: Ki (nM)
Give a bare numeral; the unit nM is implied.

compoundSmiles: CC(C)OC(=O)N1Cc2ccccc2C[C@H]1C(=O)N[C@H](C(=O)c1nnc(C(C)(C)C)o1)C(C)C
quantitativeReadout: 725
--
compoundSmiles: CC(C)[C@H](NC(=O)COc1cccc(-c2ccccc2)n1)C(=O)c1nnc(C(C)(C)C)o1
quantitativeReadout: 4280
--
compoundSmiles: CC(C)[C@H](NC(=O)[C@@H]1Cc2ccccc2N1C(=O)c1c[nH]cn1)C(=O)c1nnc(C(C)(C)C)o1
quantitativeReadout: 79.7
--
compoundSmiles: CC(C)[C@H](NC(=O)[C@@H]1Cc2ccccc2N1C(=O)[C@@H](NC(=O)c1cccnc1)C(C)C)C(=O)c1nnc(C(C)(C)C)o1
quantitativeReadout: 5.1

// moving on: another record for Ki
The compound listed as `CC(C)[C@H](NC(=O)CN1C(=O)CN=C(c2ccc(Cl)cc2)c2ccccc21)C(=O)c1nnc(C(C)(C)C)o1` has a reported Ki of 57.8
